test system: HCT-116; assay: NCI tumour cell line growth inhibition, 48 h
Calls of active or inactive are those of the source. Cut-off read from the data, not from the text of the source: active = GI50 up to about 1.1 µM and inactive = higher.
The entries below come with measured GI50 values attached.

Consider the following illustrative entries.
O=C(Nc1ccc(Cl)cc1)c1cc(S(=O)(=O)Nc2n[nH]c(=O)[nH]2)c(SSc2cc(Cl)c(C(=O)Nc3ccc(Cl)cc3)cc2S(=O)(=O)Nc2n[nH]c(=O)[nH]2)cc1Cl = > 100 µM (inactive)
NC(=O)c1cn(Cc2ccccc2)c(=O)n1Cc1ccccc1 = > 100 µM (inactive)
CC(=O)OC(C)(C)CCC(=O)[C@](C)(O)[C@H]1[C@H](O)C[C@@]2(C)[C@@H]3CC=C4C(C)=C(OC5OC(CO)C(O)C(O)C5O)C(=O)C[C@@H]4[C@]3(C)C(=O)C[C@]12C (stereo partly drawn) = > 100 µM (inactive)
COc1cc([C@@H]2c3cc4c(cc3[C@@H](NCc3cccc(C#N)c3)C3COC(=O)[C@@H]32)OCO4)cc(OC)c1O (stereo partly drawn) = 2.12 µM (inactive)
COC(=O)[C@@]12OC[C@]34C([C@@H](O)C1O)[C@@]1(C)CC(=O)C(O)=C(C)C1C[C@H]3OC(=O)[C@H](OC(=O)/C=C(/c1ccccc1)C(F)(F)F)[C@H]42 (stereo partly drawn) = 2.43 µM (inactive)

The value of GI50 recorded for COc1ccc(C2C=C(c3ccc(C)cc3)N(c3ccc(OC)cc3[N+](=O)[O-])C3C(=O)OC(=O)C23)c(OC)c1 (stereo not drawn) when tested on HCT-116 reads 28.2 µM (inactive)

The value of GI50 recorded for COCC1OC(OC2C3=C(C(C)C)CCC3(C)/C=C3\C(CCC3(O)COC)C(C)C2O)C(O)C2OC3OC12OC3(C)C1CO1 (stereo not drawn) when tested on HCT-116 reads 34 µM (inactive)

The value of GI50 recorded for O=C1/C(=C/c2ccco2)NC(=S)N1CN1CCCCC1 when tested on HCT-116 reads 57.4 µM (inactive)

The value of GI50 recorded for CC(C)N(C(=O)C12C3C4C1C1C2C3C41C(=O)N(C(C)C)C(C)C)C(C)C (stereo not drawn) when tested on HCT-116 reads > 50 µM (inactive)

The value of GI50 recorded for CCOC(=O)[C@]12C3C=CC(C3)C1C(=O)C1OC12 (stereo partly drawn) when tested on HCT-116 reads > 100 µM (inactive)

The value of GI50 recorded for COCC(C)(C)/N=C/N1Cc2cc3ccccc3nc2C1 when tested on HCT-116 reads > 100 µM (inactive)

The value of GI50 recorded for C[C@]12CC[C@@H]3c4ccc(OCC(=O)O)cc4CC[C@H]3[C@@H]1CCC2=O when tested on HCT-116 reads > 100 µM (inactive)

The value of GI50 recorded for Cn1c(=O)c2c(nc(C[N+]3([O-])CCOCC3)n2C)n(C)c1=O when tested on HCT-116 reads 7.98 µM (inactive)

The value of GI50 recorded for CCOc1ccc2nc3cc(/N=N/c4ccc(N)nc4N)ccc3c(N)c2c1 when tested on HCT-116 reads 1.66 µM (inactive)

The value of GI50 recorded for COc1cc2c(NCCCCCCO[N+](=O)[O-])ncnc2c(OC)c1OC when tested on HCT-116 reads 20.6 µM (inactive)

Reference source: ChEMBL document CHEMBL1201862
